Reported binding signal values for the following sequences.
# system: GST-Nv-NF-kB (Cys allele) (Nematostella vectensis, UniProt E5G601 2-411)
# Sequence: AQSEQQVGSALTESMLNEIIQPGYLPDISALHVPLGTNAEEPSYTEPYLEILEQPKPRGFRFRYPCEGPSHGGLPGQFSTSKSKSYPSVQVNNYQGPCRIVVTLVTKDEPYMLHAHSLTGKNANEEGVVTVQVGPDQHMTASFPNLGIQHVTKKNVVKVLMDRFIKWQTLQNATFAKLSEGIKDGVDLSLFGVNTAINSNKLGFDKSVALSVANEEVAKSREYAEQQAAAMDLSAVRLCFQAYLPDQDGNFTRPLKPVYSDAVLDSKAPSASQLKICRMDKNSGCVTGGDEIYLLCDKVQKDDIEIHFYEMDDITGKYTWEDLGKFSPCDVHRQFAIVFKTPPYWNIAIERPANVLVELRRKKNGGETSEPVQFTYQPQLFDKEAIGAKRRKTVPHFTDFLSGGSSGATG
# assay_protocol: protein-binding microarray (PBM); PBM: ~300 nM protein, 6 mM HEPES pH 7.8, 80 mM KCl, 0.5 mM EDTA, 0.5 mM EGTA, 6% glycerol, 35 ng/ul poly-dIdC, 1% milk, 1 h, room temperature; Ap Aiptasia and Nv Nematostella (sea anemones) / Co Capsaspora / Aq Amphimedon (sponge) / Dm Drosophila / Hu human; RHD is the Rel homology domain; high values mean tight binding
# recorded_conditions: dsDNA, one strand shown
metric: binding signal (z-score)

| seq_string | result_value |
| --- | --- |
| CCGATTAACATCAGAAATCCCGCTGATGTTAATCGGGTCTTGATTCGCTTGACGCTGCTG | 2.85 |
| CCGATTAACATCACTTATCCCCCTGATGTTAATCGGGTCTTGATTCGCTTGACGCTGCTG | 3.72 |
| CCGATTAACATCACAGTTTCCCCTGATGTTAATCGGGTCTTGATTCGCTTGACGCTGCTG | 7.28 |
| CCGATTAACATCAGGGGGTGTAATGATGTTAATCGGGTCTTGATTCGCTTGACGCTGCTG | 3.16 |
| CCGATTAACATCAAACTCCCCCTTGATGTTAATCGGGTCTTGATTCGCTTGACGCTGCTG | 6.74 |
| CCGATTAACATCACGGGGATTCCTGATGTTAATCGGGTCTTGATTCGCTTGACGCTGCTG | 9.58 |
| CCGATTAACATCAGGGGGGAACCTGATGTTAATCGGGTCTTGATTCGCTTGACGCTGCTG | 5.48 |
| CCGATTAACATCAGGGGAGATTATGATGTTAATCGGGTCTTGATTCGCTTGACGCTGCTG | 5.48 |
| CCGATTAACATCAGGGGATTACCTGATGTTAATCGGGTCTTGATTCGCTTGACGCTGCTG | 10.5 |

The reported numbers originate from paper PMC5700166.
